Each recorded value in this set is attributed to PubChem BioAssay (NCATS).

# system: Rap guanine nucleotide exchange factor 3 (Homo sapiens)
# protocol-notes: Counterscreen qHTS for agonist of cAMP-regulated guanine nucleotide exchange factor 3 (EPAC1) (AID 1645889); note: % of control where 0% means no effect; nearly all actives have a fitted effect of over 40% in size
# condition-label: EPAC1 Rap1B-BODIPY-GDP exchange, fluorescence; series mostly up to 154 µM
Results filed as inconclusive are left out. Calls of active or inactive are those of the source. Calls come from the whole dose curve; as a rule, active = well fitted activation curve with a large enough effect; inconclusive = small, poorly fitted or top-dose-only effect, or another doubt; inactive = no such curve, though single readings can be large or run the other way.
attribute-measured: activation

Observe how each entry below is paired with its result.
{"compound": "Fc1ccc2c(-c3cccc(C(F)(F)F)c3)c(-c3ccccc3)ncc2c1", "result": "inactive"}
{"compound": "CCOC(=O)c1c(C)[nH]c(C(=O)C(C)OC(=O)c2ccc(NC(=O)CC#N)cc2)c1C (centres undefined)", "result": "inactive"}
{"compound": "NC(=O)c1ccsc1NC(=O)CS(=O)(=O)c1ccc(F)cc1", "result": "inactive"}
{"compound": "CCOC(=O)C1=C(N)OC2=C(C(=O)CCC2)C1c1sccc1C (centres undefined)", "result": "-1.77% [at 30.8 µM] (inactive)"}
{"compound": "CCOc1cc(/C=C2/SC(=S)NC2=O)ccc1OC(=O)c1ccco1", "result": "inactive"}
{"compound": "COc1cc(CN2CCN(C(=O)CC(C)C)CC2)c([N+](=O)[O-])cc1OC", "result": "8.51% [at 30.8 µM] (inactive)"}
{"compound": "COc1ccc(NC(=O)c2csc3c2CCCCC3)c(OC)c1", "result": "inactive"}
{"compound": "Cc1cc2ccccc2cc1C(=O)c1ccccc1", "result": "5.51% [at 30.8 µM] (inactive)"}
{"compound": "COC(=O)c1ccc2nc(-c3ccc(F)cc3)c(CC3CCCCC3)n2c1", "result": "6.82% [at 30.8 µM] (inactive)"}
{"compound": "CCOc1ccc(Br)cc1S(=O)(=O)Nc1ccc(S(=O)(=O)Nc2cc(C)on2)cc1", "result": "inactive"}

Ask: Enter activation (test system Rap guanine nucleotide exchange factor 3 (Homo sapiens)) for Cc1ccc(C(C)C)c(OCCCn2c(=O)oc3ccc(C)cc32)c1
Reply: inactive

Ask: Enter activation (test system Rap guanine nucleotide exchange factor 3 (Homo sapiens)) for CCCN1C(=O)c2[nH]nc(-c3cccc(OC)c3)c2C1c1ccccn1 (centres undefined)
Reply: inactive

Ask: State activation on Rap guanine nucleotide exchange factor 3 (Homo sapiens). Entry: CCN(Cc1ccccc1)S(=O)(=O)c1cc2c3c(c1)CCN3C(=O)CC2
Reply: -5.83% [at 30.8 µM] (inactive)

Ask: # lookup: Rap guanine nucleotide exchange factor 3 (Homo sapiens) activation, key = COc1cccc(/C=N/Nc2ccc(S(=O)(=O)Nc3ccccc3C(=O)O)cc2[N+](=O)[O-])c1O
Reply: 20% [at 30.8 µM] (inactive)
